Here, each record is paired with measured Emax data.
Molecular target: human 5-HT4b receptor (Homo sapiens, UniProt Q13639)
Construct: expressed in transfected cells; host or cells: CHO cells (G418 selection)
Sequence (Q13639 whole entry): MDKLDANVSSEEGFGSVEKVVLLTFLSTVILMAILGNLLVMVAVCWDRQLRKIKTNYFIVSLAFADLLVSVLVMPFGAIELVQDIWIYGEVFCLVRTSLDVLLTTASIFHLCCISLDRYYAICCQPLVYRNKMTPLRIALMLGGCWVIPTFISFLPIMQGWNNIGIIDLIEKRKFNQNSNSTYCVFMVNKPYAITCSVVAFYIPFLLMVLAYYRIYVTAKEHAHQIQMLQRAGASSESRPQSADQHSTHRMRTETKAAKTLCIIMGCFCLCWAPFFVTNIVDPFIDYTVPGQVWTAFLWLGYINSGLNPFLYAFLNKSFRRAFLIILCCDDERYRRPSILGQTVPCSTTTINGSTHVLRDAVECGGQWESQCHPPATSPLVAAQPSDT
Experiment: Test Example 4: Serotonin 4 (5-HT4) receptor agonist activity assay, cAMP HTRF in CHO cells (Table 100)
Format: cell-based
Conditions: CHO, 0.25 h; intrinsic activity, maximal activity of 5-HT defined as 100%; mean value; read-out: IA (%)
Counter-ions that a name gives are not always drawn.
REPORTED_METRIC: Emax

> print(dat)
                                    compound                            assayed.system  test.value
 1  CC(C)c1nn(-c2noc(C3CCN(C4CCC4)CC3)n2)c2ccccc12 [Example 420, trifluoroacetate]  human 5-HT4b receptor (Homo sapiens, UniProt Q13639)       85.6%
 2  CC(C)c1nn(-c2noc(C3CCN(C4CCN(C(=O)CO)CC4)CC3)n2)c2c(F)c(F)ccc12 [Example 520]  human 5-HT4b receptor (Homo sapiens, UniProt Q13639)       82.9%
 3  CC(=O)N1CC(CN2CCC(c3nc(-n4nc(C(C)C)c5ccccc54)no3)CC2)C1 [Example 467, trifluoroacetate]  human 5-HT4b receptor (Homo sapiens, UniProt Q13639)       72.5%
 4  CC(=O)N1CCC[C@H]1CN1CC[C@@H](Cc2nc(-n3nc(C(C)C)c4cccc(F)c43)no2)C1 [Example 509]  human 5-HT4b receptor (Homo sapiens, UniProt Q13639)         56%
 5  CCc1nn(-c2noc(C3CCN(C4CCN(C(=O)COC)CC4)CC3)n2)c2c(F)cccc12 [Example 237, hydrochloride]  human 5-HT4b receptor (Homo sapiens, UniProt Q13639)       51.9%
 6  CCc1nn(-c2noc(C3CCN(C[C@H]4CCN(C(=O)COC)C4)CC3)n2)c2c(F)cccc12 [Example 210, hydrochloride]  human 5-HT4b receptor (Homo sapiens, UniProt Q13639)       68.6%
 7  COCCN(C1CCOCC1)[C@H]1C[C@@H](c2nc(-n3nc(C(C)C)c4cccc(F)c43)no2)C1 [Example 614]  human 5-HT4b receptor (Homo sapiens, UniProt Q13639)         93%
 8  CC(C)c1nn(-c2noc(C[C@H]3CCN(C4CCN(S(C)(=O)=O)CC4)C3)n2)c2c(F)cccc12 [Example 496]  human 5-HT4b receptor (Homo sapiens, UniProt Q13639)         70%
 9  CC(C)c1nn(-c2noc(C[C@@H]3CCN(CC4CN(S(C)(=O)=O)C4)C3)n2)c2c(F)cccc12 [Example 514]  human 5-HT4b receptor (Homo sapiens, UniProt Q13639)         70%
10  CC(C)c1nn(-c2noc(C[C@H]3CCN(C4CCN(C(=O)CO)CC4)C3)n2)c2c(F)cccc12 [Example 539]  human 5-HT4b receptor (Homo sapiens, UniProt Q13639)         75%
11  CC(C)c1nn(-c2noc(C3CC(NC4CCOCC4)C3)n2)c2c(F)cccc12 (centres unmarked) [Example 595]  human 5-HT4b receptor (Homo sapiens, UniProt Q13639)         93%
12  O=C(CO)N1CCC(N2CCC(c3nc(-n4nc(C5CC5)c5cccc(F)c54)no3)CC2)CC1 [Example 523]  human 5-HT4b receptor (Homo sapiens, UniProt Q13639)         24%
13  CCc1nn(-c2noc(C3CCN(C4CCN(C(C)=O)CC4)CC3)n2)c2c(F)c(F)ccc12 [Example 460, trifluoroacetate]  human 5-HT4b receptor (Homo sapiens, UniProt Q13639)       78.6%
14  CC(C)c1nn(-c2noc(C3CCN(C4(C)CCN(C(=O)N(C)C)CC4)CC3)n2)c2c(F)cccc12 [Example 489]  human 5-HT4b receptor (Homo sapiens, UniProt Q13639)        104%
15  CC(C)c1nn(-c2noc(C[C@@H]3CCN(C[C@H]4CCN(C(=O)CO)C4)C3)n2)c2c(F)cccc12 [Example 550]  human 5-HT4b receptor (Homo sapiens, UniProt Q13639)         85%
16  CC(C)c1nn(-c2noc(C3CCN(C4CCN(C(=O)CO)CC4C)CC3)n2)c2c(F)cccc12 (centres unmarked) [Example 530]  human 5-HT4b receptor (Homo sapiens, UniProt Q13639)         97%
17  CCc1nn(-c2noc(C3CCN(C4CCN(S(C)(=O)=O)CC4)CC3)n2)c2c(F)cccc12 [Example 241]  human 5-HT4b receptor (Homo sapiens, UniProt Q13639)       58.8%
18  CCc1nn(-c2noc(C3CCN(CC4CN(C(=O)CO)C4)CC3)n2)c2c(F)cccc12 [compound 250]  human 5-HT4b receptor (Homo sapiens, UniProt Q13639)       79.7%
19  CCc1nn(-c2noc(C3CCN(C[C@H]4CCN(C(=O)CO)C4)CC3)n2)c2c(F)cccc12 [Example 247]  human 5-HT4b receptor (Homo sapiens, UniProt Q13639)         79%
20  CC(=O)N1CCC(CN[C@H]2C[C@@H](c3nc(-n4nc(C(C)C)c5cccc(F)c54)no3)C2)CC1 [Example 590]  human 5-HT4b receptor (Homo sapiens, UniProt Q13639)        101%
21  CC(C)c1nn(-c2noc(C3CCN([C@H]4[C@@H]5CCC[C@H]4CN(C(=O)CO)C5)CC3)n2)c2c(F)cccc12 [Example 536]  human 5-HT4b receptor (Homo sapiens, UniProt Q13639)        100%
22  CCc1nn(-c2noc(C3CCN(CC4CCN(C(=O)COC)CC4)CC3)n2)c2c(F)c(F)ccc12 [Example 477, trifluoroacetate]  human 5-HT4b receptor (Homo sapiens, UniProt Q13639)       65.5%
23  CCc1nn(-c2noc(C3CCN(C4(C)CCN(C(=O)CO)CC4)CC3)n2)c2c(F)cccc12 [Example 538]  human 5-HT4b receptor (Homo sapiens, UniProt Q13639)         76%
24  CCc1nn(-c2noc(C3CCN(CC4CN(C(=O)COC)C4)CC3)n2)c2c(F)cccc12 [Example 224, hydrochloride]  human 5-HT4b receptor (Homo sapiens, UniProt Q13639)       73.9%
25  CC(C)c1nn(-c2noc(C[C@H]3CCN(C[C@@H]4CCCN4S(C)(=O)=O)C3)n2)c2c(F)cccc12 [Example 498]  human 5-HT4b receptor (Homo sapiens, UniProt Q13639)         36%
26  COC(=O)N1CC(CN2CCC(c3nc(-n4nc(C(C)C)c5cccc(F)c54)no3)CC2)C1 [Example 220, hydrochloride]  human 5-HT4b receptor (Homo sapiens, UniProt Q13639)       92.4%
27  CC(C)c1nn(-c2noc(C[C@H]3CCN(C[C@H]4CCCN4S(C)(=O)=O)C3)n2)c2c(F)cccc12 [Example 500]  human 5-HT4b receptor (Homo sapiens, UniProt Q13639)         90%
28  CC(=O)N1CCC(C)(N2CCC(c3nc(-n4nc(C(C)C)c5cccc(F)c54)no3)CC2)CC1 [Example 487]  human 5-HT4b receptor (Homo sapiens, UniProt Q13639)         70%
29  CC(C)c1nn(-c2noc(C[C@@H]3CCN(C[C@@H]4CCN(S(C)(=O)=O)C4)C3)n2)c2c(F)cccc12 [Example 516]  human 5-HT4b receptor (Homo sapiens, UniProt Q13639)         75%
